Target: T1, Cre recombinase monomer with Q311R mutation
T1 chain: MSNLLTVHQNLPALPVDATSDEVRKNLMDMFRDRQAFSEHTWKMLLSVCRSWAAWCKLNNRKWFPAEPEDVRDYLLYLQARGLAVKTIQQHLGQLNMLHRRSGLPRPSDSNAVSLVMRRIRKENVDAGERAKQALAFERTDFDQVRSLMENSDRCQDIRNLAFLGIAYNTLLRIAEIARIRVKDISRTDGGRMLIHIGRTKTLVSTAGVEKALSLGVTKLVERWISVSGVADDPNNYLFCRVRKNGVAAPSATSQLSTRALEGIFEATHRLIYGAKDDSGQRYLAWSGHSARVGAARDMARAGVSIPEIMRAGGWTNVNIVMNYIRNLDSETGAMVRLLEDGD
Can you tell me Median dimer activity (recombination on loxP) for the items I'm about to list?
Answer with the number, then the unit.

query: Consider the protein Cre recombinase monomer with R292T mutation (protein) MSNLLTVHQNLPALPVDATSDEVRKNLMDMFRDRQAFSEHTWKMLLSVCRSWAAWCKLNNRKWFPAEPEDVRDYLLYLQARGLAVKTIQQHLGQLNMLHRRSGLPRPSDSNAVSLVMRRIRKENVDAGERAKQALAFERTDFDQVRSLMENSDRCQDIRNLAFLGIAYNTLLRIAEIARIRVKDISRTDGGRMLIHIGRTKTLVSTAGVEKALSLGVTKLVERWISVSGVADDPNNYLFCRVRKNGVAAPSATSQLSTRALEGIFEATHRLIYGAKDDSGQRYLAWSGHSATVGAARDMARAGVSIPEIMQAGGWTNVNIVMNYIRNLDSETGAMVRLLEDGD and give its measured Median dimer activity (recombination on loxP).
result: 94%

query: Now give it for Cre recombinase monomer with R173E mutation (protein) MSNLLTVHQNLPALPVDATSDEVRKNLMDMFRDRQAFSEHTWKMLLSVCRSWAAWCKLNNRKWFPAEPEDVRDYLLYLQARGLAVKTIQQHLGQLNMLHRRSGLPRPSDSNAVSLVMRRIRKENVDAGERAKQALAFERTDFDQVRSLMENSDRCQDIRNLAFLGIAYNTLLEIAEIARIRVKDISRTDGGRMLIHIGRTKTLVSTAGVEKALSLGVTKLVERWISVSGVADDPNNYLFCRVRKNGVAAPSATSQLSTRALEGIFEATHRLIYGAKDDSGQRYLAWSGHSARVGAARDMARAGVSIPEIMQAGGWTNVNIVMNYIRNLDSETGAMVRLLEDGD too.
result: 80%

query: Okay, and Cre recombinase monomer with K201R mutation (protein) MSNLLTVHQNLPALPVDATSDEVRKNLMDMFRDRQAFSEHTWKMLLSVCRSWAAWCKLNNRKWFPAEPEDVRDYLLYLQARGLAVKTIQQHLGQLNMLHRRSGLPRPSDSNAVSLVMRRIRKENVDAGERAKQALAFERTDFDQVRSLMENSDRCQDIRNLAFLGIAYNTLLRIAEIARIRVKDISRTDGGRMLIHIGRTRTLVSTAGVEKALSLGVTKLVERWISVSGVADDPNNYLFCRVRKNGVAAPSATSQLSTRALEGIFEATHRLIYGAKDDSGQRYLAWSGHSARVGAARDMARAGVSIPEIMQAGGWTNVNIVMNYIRNLDSETGAMVRLLEDGD ?
result: 98%

query: Can you handle Cre recombinase monomer with R292S mutation (protein) MSNLLTVHQNLPALPVDATSDEVRKNLMDMFRDRQAFSEHTWKMLLSVCRSWAAWCKLNNRKWFPAEPEDVRDYLLYLQARGLAVKTIQQHLGQLNMLHRRSGLPRPSDSNAVSLVMRRIRKENVDAGERAKQALAFERTDFDQVRSLMENSDRCQDIRNLAFLGIAYNTLLRIAEIARIRVKDISRTDGGRMLIHIGRTKTLVSTAGVEKALSLGVTKLVERWISVSGVADDPNNYLFCRVRKNGVAAPSATSQLSTRALEGIFEATHRLIYGAKDDSGQRYLAWSGHSASVGAARDMARAGVSIPEIMQAGGWTNVNIVMNYIRNLDSETGAMVRLLEDGD next?
result: 97%
